experiment: Pharmacokinetics in mice after IV and PO administrations; type: in vivo, male BALB-c mice; conditions: male, BALB-c, mouse, plasma, 10 mg/kg PO, 2 hr, read-out: Plasma concentrations
ASSAY_READOUT: concentration at 2 hr (ng/mL)
Give a bare numeral; the unit ng/mL is implied.

MOLECULE: O=C1NCC=CCN1[C@@H]1O[C@H](CO)[C@@H](O)C1(F)F
ASSAY_READOUT: concentration at 2 hr
MEASURED: 1140

Now for the molecule whose concentration at 2 hr we want.
concentration at 2 hr recorded for this molecule, O=C1NCC=CCN1[C@@H]1O[C@H](CO)[C@@H](O)[C@H]1O [ER-876400, reference compound] , is 1750

The reported measurements were obtained from patent US9040501B2.
